Target: CA-IX (Homo sapiens, UniProt Q16790)
Construct: His tag (C); purchased R&D Systems Inc. 2188-CA; host or cells: mouse myeloma cell line NS0
Assay: Binding affinity (Kd) determination for CA-IX inhibitors, DNSA fluorescence competition assay, Scatchard plots
Details: Table 3
Could you please report measured Kd for the items listed next?
Hi! Could you send only the number? It should be in nM, unit omitted.

Any idea what Kd was measured for CC(C)[C@H](C(=O)N[C@@H](Cc1ccc(OCCF)cc1)C(=O)O)n1cc(COc2ccc3nc(S(N)(=O)=O)sc3c2)nn1 [VM4037b] ? 5

I am curious: what Kd value has been reported for NS(=O)(=O)c1nc2ccc(OCc3cn(C(Cc4ccc(F)cc4)C(=O)NC(COCc4cccc(OCCO)c4)C(=O)O)nn3)cc2s1 (single isomer, unassigned) [VM3-167A] ? 5

Return reported Kd; argument: NS(=O)(=O)c1nc2ccc(OCc3cn(C(Cc4ccc(F)cc4)C(=O)NC(COCc4cccc(OCCO)c4)C(=O)O)nn3)cc2s1 (single isomer, unassigned) [VM3-167B] 10

Which Kd is reported for this molecule? CCOC(=O)C1CCN(C(=O)[C@H](Cc2ccc(OCCF)cc2)n2cc(COc3ccc4nc(S(N)(=O)=O)sc4c3)nn2)CC1 5

GET /values?readout=Kd&item= NS(=O)(=O)c1nc2ccc(OCc3cn(CC(=O)N[C@@H](Cc4ccc(OCC(O)CF)cc4)C(=O)O)nn3)cc2s1 (stereo partly shown) 5

Quick one: Kd of COC(=O)[C@H](CSCc1ccccc1)NC(=O)Cn1cc(COc2ccc3nc(S(N)(=O)=O)sc3c2)nn1 ? 10

Recorded Kd of NS(=O)(=O)c1nc2ccc(OCc3cn([C@@H](Cc4ccc(OCCF)cc4)C(=O)N[C@@H](Cc4ccc(C(F)(F)F)cc4)C(=O)O)nn3)cc2s1 , please. 0.5

Endpoint output: Kd of NS(=O)(=O)c1nc2ccc(OCc3cn(CC(=O)N[C@@H](CSCc4ccccc4)C(=O)O)nn3)cc2s1 . Value? 10

For C[N+](C)(C)C[C@H](O)CC(=O)NCCOc1cccc(COCC(NC(=O)Cn2cc(COc3ccc4nc(S(N)(=O)=O)sc4c3)nn2)C(=O)O)c1 (stereo partly shown) , what is its reported Kd? 10

# input molecule: COC(=O)C[C@H](NC(=O)[C@H](C(C)C)n1cc(COc2ccc3nc(S(N)(=O)=O)sc3c2)nn1)c1ccc(C(F)(F)F)cc1 ; wanted: its Kd 5

For the molecule shown here, CCOC(=O)c1ccc(Cn2cc(COc3ccc4nc(S(N)(=O)=O)sc4c3)nn2)cc1 , give the reported Kd. 16.7

GET /values?readout=Kd&item= Cc1onc(-c2ccccc2)c1CNC(=O)[C@H](Cc1ccccc1)n1cc(COc2ccc3nc(S(N)(=O)=O)sc3c2)nn1 2

Look up Kd: COCCOCCOCCOCCC(=O)NCCOc1cccc(CSC[C@@H](NC(=O)Cn2cc(COc3ccc4nc(S(N)(=O)=O)sc4c3)nn2)C(=O)O)c1 10

----------
Biological target: CA-IX (Homo sapiens)
Construct: His tag (C); purchased R&D Systems Inc. 2188-CA; host or cells: mouse myeloma cell line NS0
Test: Binding affinity (Kd) determination for CA-IX inhibitors, DNSA fluorescence competition assay, Scatchard plots
Conditions: Table 3
Description: General. […] The human red blood cells were obtained from Research Blood Components, LLC. All absorbance measurements were performed on a SPECTRA MAX M2 plate reader at 25° C. […] 19F NMR spectra were recorded on a Bruker AMX 282.35 MHz or a Varian 400 spectrometer. The mass spectra were recorded on an Agilent 1100 series LC/MSD with electrospray mass spectroscopic detection. […] The radiochemical and chemical purities were analyzed by RP-HPLC. […]
MEASURED ENDPOINT: Kd

For the compound shown here, Cc1cc[n+](C)c(NC(=O)[C@H](Cc2ccccc2)n2cc(-c3ccc(S(N)(=O)=O)cc3)nn2)c1 [DHK160] , give the reported Kd. 20 nM

Given NS(=O)(=O)c1nc2ccc(OCc3cn([C@@H](Cc4ccc(OCCF)cc4)C(=O)N[C@@H](CC(=O)O)c4ccccc4)nn3)cc2s1 [DHK2-135] , state its recorded Kd. 5 nM

Param item = NS(=O)(=O)c1nc2ccc(OCc3cn([C@@H](Cc4ccc(OCCF)cc4)C(=O)N[C@H](Cc4ccc(C(F)(F)F)cc4)C(=O)O)nn3)cc2s1 [DHK2-161] ; retrieve measured Kd. 5 nM

Param item = NS(=O)(=O)c1nc2cc(OCc3cn(C(CCO)C(=O)NC(CSCc4cccc(OCCF)c4)C(=O)O)nn3)ccc2s1 (single isomer, unassigned) [VM2-107a] ; retrieve measured Kd. 10 nM

Query (compound): CC(C)C(C(=O)NC(Cc1ccc(OCC(O)CF)cc1)C(=O)O)n1cc(COc2ccc3nc(S(N)(=O)=O)sc3c2)nn1 (single isomer, unassigned) [VM4047a] ; field requested: Kd 5 nM

Look up Kd for this compound: COC(=O)[C@H](Cc1ccc(C(F)(F)F)cc1)NC(=O)[C@H](C(C)C)n1cc(COc2ccc3nc(S(N)(=O)=O)sc3c2)nn1 [DHK2-129] 1.2 nM
